- TESTED ON: Hexokinase-4 (Homo sapiens) (UniProt P35557)
- Sequence (whole entry): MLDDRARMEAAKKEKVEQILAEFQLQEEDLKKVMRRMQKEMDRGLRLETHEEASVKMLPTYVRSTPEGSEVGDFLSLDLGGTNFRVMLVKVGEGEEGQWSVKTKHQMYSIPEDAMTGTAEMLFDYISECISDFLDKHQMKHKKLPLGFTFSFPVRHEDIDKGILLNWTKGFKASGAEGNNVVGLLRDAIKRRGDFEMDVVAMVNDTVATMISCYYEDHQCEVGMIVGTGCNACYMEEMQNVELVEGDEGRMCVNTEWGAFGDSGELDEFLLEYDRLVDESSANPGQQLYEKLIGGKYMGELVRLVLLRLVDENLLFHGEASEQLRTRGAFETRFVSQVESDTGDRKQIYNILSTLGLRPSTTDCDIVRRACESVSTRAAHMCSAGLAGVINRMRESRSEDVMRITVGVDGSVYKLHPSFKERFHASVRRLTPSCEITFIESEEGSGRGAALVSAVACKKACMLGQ
- TEST: Activity of activated human recombinant Glucokinase assessed as maximum glucose phosphorylation measured over 5 mins by spectrophotometry relative to unactivated enzyme
RECORDED METRIC: Ratio
Answer with a bare number; do not write a unit.

Solved cases (6 shown):
CCc1ncccc1Oc1cc(CCCOC)cnc1NC(=O)NC ... 0.78
CCn1nccc1Oc1cc(C[C@@H]2CCO[C@@H](COC)C2)cnc1NC(=O)NC ... 0.78
CCn1nccc1Oc1cc(C(O)C2CCOCC2)cnc1NC(=O)NC (centres undefined) ... 0.82
CCc1ncccc1Oc1cc(CC(C)C)cnc1NC(=O)NC ... 0.82
CCn1nc(COC)cc1Oc1cc(CC2CCOCC2)cnc1NC(=O)NC ... 0.71
CCn1nccc1Oc1cc(CC2CCOCC2)cnc1NC(=O)NC ... 0.8

We next turn to a different compound, shown below.
Task: Return reported Ratio; argument: CCn1nccc1Oc1cc(CCCC(C)(C)O)cnc1NC(=O)NC
Output: 0.75

====

- TESTED ON: Hexokinase-4 (Homo sapiens)
- TEST: Activity of activated human recombinant Glucokinase assessed as maximum glucose phosphorylation measured over 5 mins by spectrophotometry relative to unactivated enzyme
RECORDED METRIC: Ratio
Answer with a bare number; do not write a unit.

Solved cases (5 shown):
CCn1nccc1Oc1cc(CN2CCOCC2)cnc1NC(=O)NC ... 0.78
CCc1ncccc1Oc1cc(CCCC(C)(C)O)cnc1NC(=O)NC ... 0.73
CCc1ncccc1Oc1cc(CCCCO)cnc1NC(=O)NC ... 0.86
CCn1nccc1Oc1cc(C[C@H]2CC[C@H](O)CC2)cnc1NC(=O)NC ... 0.79
CCn1nccc1Oc1cc(CCCCOC)cnc1NC(=O)NC ... 0.83

Task: Return reported Ratio; argument: CCOCCc1cnc(NC(=O)NC)c(Oc2cccnc2CC)c1
Output: 0.7

Task: Same thing, different compound: CCc1ncccc1Oc1cc(CC2CCOCC2)cnc1NC(=O)NC
Output: 0.75

====

- TESTED ON: Hexokinase-4 (Homo sapiens) (UniProt P35557)
- TEST: Activity of activated human recombinant Glucokinase assessed as maximum glucose phosphorylation measured over 5 mins by spectrophotometry relative to unactivated enzyme
Entries and their Ratio

CCn1nccc1Oc1cc(C[C@H]2C[C@H](O)C2)cnc1NC(=O)NC ... 0.96
CCc1ncccc1Oc1cc(CC2CCCCC2)cnc1NC(=O)NC ... 0.73
CCn1nccc1Oc1cc(C[C@H]2C[C@@H](O)C2)cnc1NC(=O)NC ... 0.88
CCn1nccc1Oc1cc(C[C@H]2CC[C@@](C)(O)CC2)cnc1NC(=O)NC ... 0.82
CCn1nccc1Oc1cc(C[C@H]2CCO[C@H](COC)C2)cnc1NC(=O)NC ... 0.76

Task: Return reported Ratio; argument: CNC(=O)Nc1ncc(CC2CCOCC2)cc1Oc1ccnn1C(C)C
Output: 0.6

Task: Same thing, different molecule: CCn1nccc1Oc1cc(C[C@H]2CC[C@@H](O)CC2)cnc1NC(=O)NC
Output: 0.66
